Entries and their inhibition at 20 µM
- assay-target: NKCC1 (Homo sapiens, UniProt P55011)
- Construct: endogenous in cells; host or cells: native HEK293 cells
- Sequence (P55011 whole entry): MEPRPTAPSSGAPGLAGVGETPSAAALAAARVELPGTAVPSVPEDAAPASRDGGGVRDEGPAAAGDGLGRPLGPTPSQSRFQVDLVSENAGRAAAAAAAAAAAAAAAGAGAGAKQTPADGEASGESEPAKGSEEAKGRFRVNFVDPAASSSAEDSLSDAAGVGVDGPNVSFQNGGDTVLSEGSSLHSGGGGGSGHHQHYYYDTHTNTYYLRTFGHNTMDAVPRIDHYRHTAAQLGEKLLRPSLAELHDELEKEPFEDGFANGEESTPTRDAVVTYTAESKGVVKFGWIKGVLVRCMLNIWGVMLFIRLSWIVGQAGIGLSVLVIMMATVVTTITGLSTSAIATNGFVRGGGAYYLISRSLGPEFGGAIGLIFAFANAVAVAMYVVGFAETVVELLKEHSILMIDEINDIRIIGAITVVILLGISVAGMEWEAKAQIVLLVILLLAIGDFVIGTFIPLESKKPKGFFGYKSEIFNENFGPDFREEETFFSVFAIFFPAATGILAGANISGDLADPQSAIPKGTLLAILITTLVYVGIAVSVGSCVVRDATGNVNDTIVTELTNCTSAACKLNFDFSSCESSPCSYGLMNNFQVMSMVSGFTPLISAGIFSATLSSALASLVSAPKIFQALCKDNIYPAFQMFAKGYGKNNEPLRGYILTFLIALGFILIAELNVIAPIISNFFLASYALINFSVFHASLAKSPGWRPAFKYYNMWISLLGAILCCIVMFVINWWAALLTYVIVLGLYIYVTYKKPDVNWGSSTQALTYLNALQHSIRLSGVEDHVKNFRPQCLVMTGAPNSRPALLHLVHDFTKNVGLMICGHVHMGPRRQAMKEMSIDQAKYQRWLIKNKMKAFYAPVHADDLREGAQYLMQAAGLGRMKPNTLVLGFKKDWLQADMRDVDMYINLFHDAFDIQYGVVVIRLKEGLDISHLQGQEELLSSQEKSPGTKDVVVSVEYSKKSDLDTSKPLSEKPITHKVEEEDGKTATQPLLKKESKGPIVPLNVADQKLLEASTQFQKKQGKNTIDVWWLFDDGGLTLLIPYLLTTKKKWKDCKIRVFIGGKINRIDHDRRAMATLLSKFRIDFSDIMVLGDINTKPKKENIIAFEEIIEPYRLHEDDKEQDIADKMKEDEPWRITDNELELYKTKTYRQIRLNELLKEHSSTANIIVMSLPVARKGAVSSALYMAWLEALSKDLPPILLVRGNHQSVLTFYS
- assay-method-text: NKCC1-mediated K+ influx (83Rb tracer uptake) in native HEK293 cells, hypertonic saline, 100 μM ouabain
- Assay type: cell-based
- study-conditions: HEK293; 20 μM; no drug = 1000, 20 μM bumetanide = 0; read-out: NKCC1 mediated flux inhibition at 20 μM (%)
test-readout: inhibition at 20 µM

{"molecule": "CCCCNc1cc(C(=O)O)cc(S(=N)(=O)NCc2cccnc2)c1Oc1ccccc1 (centres unmarked) [Compound 83]", "test-readout": "inhibition at 20 µM", "result": "≥ 75%"}
{"molecule": "CCCCNc1cc(C(=O)OC)cc(S(=N)(=O)N(C)CC)c1Oc1ccccc1 (centres unmarked) [Compound 5]", "test-readout": "inhibition at 20 µM", "result": "50 to 75%"}
{"molecule": "CCCCNc1cc(C(=O)OC)cc(S(=N)(=O)NCCc2cccnc2)c1Oc1ccccc1 (centres unmarked) [Compound 37]", "test-readout": "inhibition at 20 µM", "result": "10 to 30%"}
{"molecule": "CCCCNc1cc(C(=O)OC)cc(S(=N)(=O)NCC2CCOCC2)c1Oc1ccccc1 (centres unmarked) [Compound 13]", "test-readout": "inhibition at 20 µM", "result": "10 to 30%"}
{"molecule": "CCCCNc1cc(C(=O)O)cc(S(=N)(=O)Nc2cnccn2)c1Oc1ccccc1 (centres unmarked) [Compound 73]", "test-readout": "inhibition at 20 µM", "result": "≥ 75%"}
{"molecule": "CCCCNc1cc(C(=O)OC)cc(S(=N)(=O)NCc2cccnc2)c1Oc1ccccc1 (centres unmarked) [Compound 36]", "test-readout": "inhibition at 20 µM", "result": "30 to 50%"}
{"molecule": "CCCCNc1cc(C(=O)OC)cc(S(=N)(=O)NCc2ccccc2)c1Oc1ccccc1 (centres unmarked) [Compound 8]", "test-readout": "inhibition at 20 µM", "result": "50 to 75%"}
{"molecule": "CCCCNc1cc(C(=O)O)cc(S(=N)(=O)Nc2cccc(Cl)c2)c1Oc1ccccc1 (centres unmarked) [Compound 70]", "test-readout": "inhibition at 20 µM", "result": "≥ 75%"}
{"molecule": "CCCCNc1cc(C(=O)O)cc(S(=N)(=O)NCCc2ccccc2)c1Oc1ccccc1 (centres unmarked) [Compound 81]", "test-readout": "inhibition at 20 µM", "result": "≥ 75%"}
{"molecule": "CCCCNc1cc(C(=O)O)cc(S(=N)(=O)NC2CCN(C(C)=O)CC2)c1Oc1ccccc1 (centres unmarked) [Compound 92]", "test-readout": "inhibition at 20 µM", "result": "50 to 75%"}
{"molecule": "CCCCNc1cc(C(=O)OC)cc(S(=N)(=O)Nc2cccc(OC)c2)c1Oc1ccccc1 (centres unmarked) [Compound 17]", "test-readout": "inhibition at 20 µM", "result": "30 to 50%"}
{"molecule": "CCCCNc1cc(C(=O)O)cc(S(=N)(=O)NCC2CCCCC2)c1Oc1ccccc1 (centres unmarked) [Compound 62]", "test-readout": "inhibition at 20 µM", "result": "≥ 75%"}
{"molecule": "CCCCNc1cc(C(=O)O)cc(S(=N)(=O)Nc2nccs2)c1Oc1ccccc1 (centres unmarked) [Compound 90]", "test-readout": "inhibition at 20 µM", "result": "≥ 75%"}
{"molecule": "CCCCNc1cc(-c2nnn[nH]2)cc(S(=O)(=O)Nc2ccccc2)c1Oc1ccccc1 [Compound 126]", "test-readout": "inhibition at 20 µM", "result": "≥ 75%"}
{"molecule": "CCCCNc1cc(C(=O)O)cc(S(=N)(=O)N2CCCCC2)c1Oc1ccccc1 (centres unmarked) [Compound 54]", "test-readout": "inhibition at 20 µM", "result": "≥ 75%"}
{"molecule": "CCCCNc1cc(C(=O)NCC(F)(F)F)cc(S(=N)(=O)Nc2ccccc2)c1Oc1ccccc1 (centres unmarked) [Compound 111]", "test-readout": "inhibition at 20 µM", "result": "10 to 30%"}
{"molecule": "CCCCNc1cc(C(=O)OC)cc(S(=N)(=O)NCc2ccn(C)n2)c1Oc1ccccc1 (centres unmarked) [Compound 42]", "test-readout": "inhibition at 20 µM", "result": "10 to 30%"}
{"molecule": "CCCCNc1cc(C(=O)O)cc(S(=O)(=Nc2ccccc2)N2CCCCCC2)c1Oc1ccccc1 (centres unmarked) [Compound 101]", "test-readout": "inhibition at 20 µM", "result": "10 to 30%"}
{"molecule": "CCCCNc1cc(C(=O)OC)cc(S(=N)(=O)NCCCC)c1Oc1ccccc1 (centres unmarked) [Compound 46]", "test-readout": "inhibition at 20 µM", "result": "30 to 50%"}
{"molecule": "CCCCNc1cc(C(=O)OC)cc(S(=N)(=O)Nc2nccs2)c1Oc1ccccc1 (centres unmarked) [Compound 43]", "test-readout": "inhibition at 20 µM", "result": "10 to 30%"}
{"molecule": "CCCCNc1cc(C(=O)O)cc(S(=N)(=O)NCc2ccn(C)n2)c1Oc1ccccc1 (centres unmarked) [Compound 87]", "test-readout": "inhibition at 20 µM", "result": "≥ 75%"}
{"molecule": "CCCCNc1cc(C(=O)O)cc(S(=N)(=O)NC23CC(C2)C3)c1Oc1ccccc1 (centres unmarked) [Compound 95]", "test-readout": "inhibition at 20 µM", "result": "30 to 50%"}
{"molecule": "CCCCNc1cc(C(=O)NCCC(F)(F)F)cc(S(=N)(=O)Nc2ccccc2)c1Oc1ccccc1 (centres unmarked) [Compound 120]", "test-readout": "inhibition at 20 µM", "result": "30 to 50%"}
